- TARGET OR TEST SYSTEM: hSTING-WT (Homo sapiens (Human), UniProt Q86WV6, H232R)
- Sequence (Q86WV6 140-379 H232R): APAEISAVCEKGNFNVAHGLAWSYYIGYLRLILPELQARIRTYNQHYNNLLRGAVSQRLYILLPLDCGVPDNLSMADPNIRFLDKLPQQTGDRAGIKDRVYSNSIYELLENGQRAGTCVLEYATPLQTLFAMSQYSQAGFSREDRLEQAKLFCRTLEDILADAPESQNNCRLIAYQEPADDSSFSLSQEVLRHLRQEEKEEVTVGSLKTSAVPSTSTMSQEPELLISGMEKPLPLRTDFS
- ASSAY OVERVIEW: Radiometric filtration binding competition assay, hSTING-WT
REPORTED METRIC: IC50

Reference set, count: 3
molecule="CC1CCC(Nc2ccc3c(=O)c4ccc(Cl)c(Cl)c4n(CC(=O)O)c3c2)CC1 (stereo not shown) [Compound 140]" reported_metric=IC50 reading="20 to 100 µM"
molecule="COc1c(Cl)ccc2c(=O)c3ccc(C(C)C)cc3n(CC(=O)O)c12 [Compound 245]" reported_metric=IC50 reading="20 to 100 µM"
molecule="O=C(O)Cn1c2cc(-c3cccc(Cl)n3)ccc2c(=O)c2ccc(Cl)c(Cl)c21 [Compound 162]" reported_metric=IC50 reading="100 to 300 µM"

Would you kindly look at the next entry?
Q: Give me measured IC50, please, for this molecule: CC(C)c1ccc2c(=O)c3ccc(Cl)c(OC[C@@H](C)O)c3n(CC(=O)O)c2c1 [Compound 327]
Result: > 300 µM

----------
Each item that follows carries a reported Emax.
- TARGET OR TEST SYSTEM: STING protein (Homo sapiens (Human), UniProt Q86WV6, H232R)
- Sequence (Q86WV6 whole entry H232R): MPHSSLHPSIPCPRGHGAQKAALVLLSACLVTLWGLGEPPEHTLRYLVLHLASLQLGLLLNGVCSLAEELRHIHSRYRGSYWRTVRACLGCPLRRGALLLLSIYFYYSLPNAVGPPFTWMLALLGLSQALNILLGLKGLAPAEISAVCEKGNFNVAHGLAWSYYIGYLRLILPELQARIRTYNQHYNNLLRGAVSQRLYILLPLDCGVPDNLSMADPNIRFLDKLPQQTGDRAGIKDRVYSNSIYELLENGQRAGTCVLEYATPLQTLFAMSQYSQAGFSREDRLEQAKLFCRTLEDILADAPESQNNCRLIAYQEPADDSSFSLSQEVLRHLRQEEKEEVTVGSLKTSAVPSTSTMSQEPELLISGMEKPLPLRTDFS
- ASSAY OVERVIEW: Cell based reporter assay of IRF activation (IRF-luciferase), THP1-dual-KI R232
- CONDITION LABEL: read-out: THP1-dual-KI R232_IRF(Luciferase)_Activity Maximum measured (%)

compound=O=C(O)Cn1c2cc(-c3cccc(Cl)n3)ccc2c(=O)c2ccc(Cl)c(Cl)c21 target_or_test_system="STING protein (Homo sapiens (Human), UniProt Q86WV6, H232R)" reported_metric=Emax reading="< 5%"
compound=COc1cc(Cl)c(OC)c2c1c(=O)c1ccccc1n2CC(=O)O target_or_test_system="STING protein (Homo sapiens (Human), UniProt Q86WV6, H232R)" reported_metric=Emax reading="< 5%"
compound=CC(C)c1ccc2c3ccc(Cl)c(Cl)c3n(CC(=O)O)c2c1 target_or_test_system="STING protein (Homo sapiens (Human), UniProt Q86WV6, H232R)" reported_metric=Emax reading="< 5%"
compound=Cc1ccc2c(=O)c3ccc(Cl)c(N(C)C)c3n(CC(=O)O)c2c1 target_or_test_system="STING protein (Homo sapiens (Human), UniProt Q86WV6, H232R)" reported_metric=Emax reading="> 50%"
compound=COc1c(Cl)ccc2c(=O)c3cc(O)c(C(C)C)cc3n(CC(=O)O)c12 target_or_test_system="STING protein (Homo sapiens (Human), UniProt Q86WV6, H232R)" reported_metric=Emax reading="< 5%"

Q: Give me measured Emax, please, for this compound: CC(C)Sc1ccc2c(=O)c3ccc(Cl)c(Cl)c3n(CC(=O)O)c2c1
Result: < 5%

Q: Give me measured Emax, please, for this compound: [N-]=[N+]=NCc1c(Cl)ccc2c(=O)c3ccccc3n(CC(=O)O)c12
Result: < 5%

Q: Give me measured Emax, please, for this compound: COc1c(Cl)ccc2c(=O)c3ccc(C)cc3n(CC(=O)NS(=O)(=O)C3CC3)c12
Result: > 50%

Q: Give me measured Emax, please, for this compound: CCSc1c(Cl)ccc2c(=O)c3ccc(C)cc3n(CC(=O)O)c12
Result: > 50%

Q: Give me measured Emax, please, for this compound: CC(C)c1ccc2c(=O)c3ccc(Cl)c(OC[C@@H](C)O)c3n(CC(=O)O)c2c1
Result: < 5%

Q: Give me measured Emax, please, for this compound: O=C(O)Cn1c2ccccc2c(=O)c2ccc(Br)c(Br)c21
Result: 5 to 25%

Q: Give me measured Emax, please, for this compound: COc1c(Cl)c(N)cc2c(=O)c3ccccc3n(CC(=O)O)c12
Result: < 5%

Q: Give me measured Emax, please, for this compound: CSc1ccc2c(=O)c3ccc(Cl)c(Cl)c3n(CC(=O)O)c2c1
Result: 25 to 50%

Q: Give me measured Emax, please, for this compound: O=C(O)Cn1c2cc(N3CCc4ccccc43)ccc2c(=O)c2ccc(Cl)c(Cl)c21
Result: < 5%

Q: Give me measured Emax, please, for this compound: CC1(C)CCCC(c2ccc3c(=O)c4ccc(Cl)c(Cl)c4n(CC(=O)O)c3c2)C1 (stereo not drawn)
Result: < 5%

Q: Give me measured Emax, please, for this compound: COc1c(Cl)ccc2c(=O)c3ccc(C4=CCOCC4)cc3n(CC(=O)O)c12
Result: > 50%

Q: Give me measured Emax, please, for this compound: COc1c(Cl)ccc2c(=O)c3ccc(Nc4ccccc4Cl)cc3n(CC(=O)O)c12
Result: > 50%

Q: Give me measured Emax, please, for this compound: COc1c(Cl)ccc2c(=O)c3ccc(SC)cc3n(CC(=O)O)c12
Result: > 50%

----------
- TARGET OR TEST SYSTEM: mSTING-R232 (Mus musculus)
- ASSAY OVERVIEW: STING differential scanning fluorimetry (DSF) assay, mouse STING
- CONDITION LABEL: net shift in melting temperature
REPORTED METRIC: MOUSE DSF_6xHIS-SUMO Tm Shift (° C.)

Reference set, count: 10
compound="COc1c(Cl)ccc2c(=O)c3ccc(Nc4ccc(F)cc4)cc3n(CC(=O)O)c12 [Compound 250]" reading="D (“D” > 15° C.)"
compound="O=C(O)Cn1c2cc(C(F)(F)F)ccc2c(=O)c2ccc(Cl)c(Cl)c21 [Compound 165]" reading="C (“C” = 5-15° C.)"
compound="O=C(O)Cn1c2cc(C3CCCCC3)ccc2c(=O)c2ccc(Cl)c(Cl)c21 [Compound 115]" reading="D (“D” > 15° C.)"
compound="O=C(O)Cn1c2ccccc2c(=O)c2cccc(Br)c21 [Compound 130]" reading="C (“C” = 5-15° C.)"
compound="O=C(O)Cn1c2cc(-c3cccc(F)c3)ccc2c(=O)c2ccc(Cl)c(Cl)c21 [Compound 152]" reading="C (“C” = 5-15° C.)"
compound="CC(C)Oc1c(Cl)ccc2c(=O)c3ccc(C(C)(C)C)cc3n(CC(=O)O)c12 [Compound 225]" reading="D (“D” > 15° C.)"
compound="Cc1ccc(-c2ccc3c(=O)c4ccc(Cl)c(Cl)c4n(CC(=O)O)c3c2)cc1F [Compound 163]" reading="D (“D” > 15° C.)"
compound="O=C(O)Cn1c2cc(C3CCCC3)ccc2c(=O)c2ccc(Cl)c(Cl)c21 [Compound 113]" reading="D (“D” > 15° C.)"
compound="O=C(O)Cn1c2cc(-c3ccc(Cl)cc3)ccc2c(=O)c2ccc(Cl)c(Cl)c21 [Compound 156]" reading="C (“C” = 5-15° C.)"
compound="COCCOc1c(Cl)ccc2c(=O)c3ccccc3n(CC(=O)O)c12 [Compound 330]" reading="B (“B” = 0-5° C.)"

Q: Give me measured MOUSE DSF_6xHIS-SUMO Tm Shift (° C.), please, for this compound: O=C(O)Cn1c2ccccc2c(=O)c2ccc(Br)c(Br)c21 [Compound 108]
Result: C (“C” = 5-15° C.)

Q: Give me measured MOUSE DSF_6xHIS-SUMO Tm Shift (° C.), please, for this compound: CN(C)c1c(Cl)ccc2c(=O)c3ccc(C(C)(C)C)cc3n(CC(=O)O)c12 [Compound 324]
Result: D (“D” > 15° C.)

----------
The molecules below have reported IC50 for hSTING-CTD (Homo sapiens (Human)).

Reference set, count: 2
molecule="CC(C)c1ccc2c(=O)c3ccc(Cl)c(Br)c3n(CC(=O)O)c2c1 [Compound 111]" target_or_test_system="hSTING-CTD (Homo sapiens (Human))" reading="< 100 µM"
molecule="CC(C)Nc1ccc2c(=O)c3ccc(Cl)c(Cl)c3n(CC(=O)O)c2c1 [Compound 119]" target_or_test_system="hSTING-CTD (Homo sapiens (Human))" reading="< 100 µM"

Q: Give me measured IC50, please, for this molecule: Cc1cc(Cl)c2c(c1)c(=O)c1ccc(C)cc1n2CC(=O)O [Compound 38]
Result: 500 to 1000 µM

Q: Give me measured IC50, please, for this molecule: CCc1ccc2c(=O)c3ccc(Cl)c(Cl)c3n(CC(=O)O)c2c1 [Compound 82]
Result: 100 to 500 µM

Q: Give me measured IC50, please, for this molecule: Cc1ccc2c(=O)c3cc(Br)ccc3n(CC(=O)O)c2c1 [Compound 78]
Result: > 1000 µM

----------
Each item that follows carries a reported IC50.
- TARGET OR TEST SYSTEM: hSTING-HAQ (Homo sapiens (Human), UniProt Q86WV6, G230A/H232R/R293Q)
- Sequence (Q86WV6 140-379 G230A/H232R/R293Q): as the sequence (Q86WV6 140-379 H232R) above, with G91A, R154Q counted along it
- ASSAY OVERVIEW: Radiometric filtration binding competition assay, hSTING-HAQ

Reference set, count: 3
compound="O=C(O)Cn1c2cc(-c3ccc(O)cc3)ccc2c(=O)c2ccc(Cl)c(Cl)c21 [Compound 223]" reading="20 to 100 µM"
compound="O=C(O)Cn1c2cc(Nc3ccc(F)cc3F)ccc2c(=O)c2ccc(Cl)c(Cl)c21 [Compound 221]" reading="20 to 100 µM"
compound="O=C(O)Cn1c2cc(Nc3cnccn3)ccc2c(=O)c2ccc(Cl)c(Cl)c21 [Compound 217]" reading="100 to 300 µM"

Q: Give me measured IC50, please, for this compound: O=C(O)Cn1c2cc(-c3ccccc3)ccc2c(=O)c2ccc(Cl)c(Br)c21 [Compound 177]
Result: 100 to 300 µM

Q: Give me measured IC50, please, for this compound: O=C(O)Cn1c2cc(Nc3ccc(F)cc3)ccc2c(=O)c2ccc(Cl)c(Cl)c21 [Compound 218]
Result: 20 to 100 µM

Q: Give me measured IC50, please, for this compound: O=C(O)Cn1c2cc(Nc3ncccn3)ccc2c(=O)c2ccc(Cl)c(Cl)c21 [Compound 216]
Result: 20 to 100 µM

Q: Give me measured IC50, please, for this compound: CC(C)c1ccc2c(=O)c3ccc(Cl)c(Br)c3n(CC(=O)O)c2c1 [Compound 111]
Result: 100 to 300 µM

Q: Give me measured IC50, please, for this compound: CC(C)(C)c1ccc2c(=O)c3ccc(Cl)c(Br)c3n(CC(=O)O)c2c1 [Compound 176]
Result: 20 to 100 µM
